Task for the reader: assign each of the following molecules its reported GI50.
- Test system: NCI-H226
- assayNotes: NCI tumour cell line growth inhibition, 48 h
Activity calls are given as the source filed them. No stated cut-off is given here; in the data, active = GI50 up to about 1.1 µM and inactive = higher.

The molecule CSC1=N/C(=C\c2ccccc2)C(=O)N1CN1CCCCC1 showed GI50 equal to 35.7 µM (inactive)

The molecule identified as COC(=O)C(C(=O)C(=O)Nc1cccc(OC)c1)c1cnc2ccccc2n1 (stereo not given) registered its GI50 at > 100 µM (inactive)

Notebook: CC(C)(CO)CNc1nc(N)nc(Cl)c1N , GI50 read as 67.3 µM (inactive)

Value of measured GI50 for the entry CC(C)(C)c1cc[n+](C[n+]2ccc(C(C)(C)C)cc2)cc1 : > 100 µM (inactive)

For record CN(CCNC(=O)c1nn(C)c2c1Cc1ccccc1-2)CCNC(=O)c1nn(C)c2c1Cc1ccccc1-2 the listed GI50 is 18.3 µM (inactive)

Kindly note the recorded GI50 for CC(NC(=O)c1ccc(OP(=O)(OCc2ccc([N+](=O)[O-])o2)N(C)CCCCCl)cc1)c1ccc(OCC2CCCCC2)c(C(N)=O)c1 (stereo not given) , which is 3.98 µM (inactive)

Recorded result, COc1ccc(CC2=NCCc3cc(OC)c(OC)cc32)cc1Br , GI50: 4.38 µM (inactive)

For record Cc1ccc(S(=O)(=O)NNC(=O)c2cc(C)ccc2NC(=O)C23CC4CC(CC(C4)C2)C3)cc1 the listed GI50 is 60.7 µM (inactive)

Looking up CC(=O)/C(=C/N1C(=O)CC(=O)NC1=S)C(=O)Nc1ccccc1C , I found its GI50 recorded as > 100 µM (inactive)

Lab note: COC(=O)C1=C(c2cc(OC)c(OC)c(OC)c2)OC(c2cc(OC)c(OC)c(OC)c2)C1COC(C)=O (stereo not given) gave GI50 of 46.1 µM (inactive)

Quick note, GI50 for c1ccc(-c2[nH]c(-c3ccccc3)c(-c3cnccn3)c2-c2cnccn2)cc1 landed at > 100 µM (inactive)

Lab book: GI50 of O=C(O)C(Cc1c[nH]cn1)N1C(=O)c2ccccc2C1=O (stereo not given) noted as > 100 µM (inactive)

Sample CCOP(=O)(O)C(Nc1ccc(/N=N/c2ccccc2)cc1)c1cccc(C(Nc2ccc(/N=N/c3ccccc3)cc2)P(=O)(O)OCC)c1 (stereo not given) ; GI50 observed: > 100 µM (inactive)

Input CC(O)CC(O)(C(F)(F)F)C(F)(F)F (stereo not given) . Output GI50: > 10 µM (inactive)

For this molecule ( COc1ccc(-c2csc(Cc3nc4ccccc4c(=O)n3-c3ccc(Cl)cc3)n2)cc1 ), measured GI50 is 74.6 µM (inactive)

Recorded GI50 (molecule COC(=O)c1cc(C#N)[nH]c1-c1ccc(C)s1 ): 37.6 µM (inactive)

So for Clc1cc(OCc2nn3c(Cc4ccccc4)nnc3s2)ccc1OCc1nn2c(Cc3ccccc3)nnc2s1 , the logged GI50 turned out to be 54.6 µM (inactive)

// recorded GI50 for O=C(/C=C/c1ccsc1)c1ccco1 : 28.1 µM (inactive)

Data point: O=S1(=O)NN=C(NCc2ccc(Cl)c(Cl)c2)c2ccccc21 ; GI50 = > 100 µM (inactive)

GI50 in this record for C=CNC(=S)n1nc(-c2ccccc2NC(=O)C(F)(F)F)c(=O)n(C(=S)NC=C)c1=S : 21.2 µM (inactive)
